system: HCT-15 colon; assay: NCI-60 one-dose screen, 48 h; conditions: 10 µM unless noted
This is part of a sample that, as a whole, favours compounds with a hit. Of some 83,000 tested, about 20% had one in any assay. The source made the active and inactive calls. Rule for the calls: active = growth percent below 10; inactive = the rest.
Pick from Y (active), N (inactive) when you respond.

Given CCOC(=O)C1=C(C)/C(=C\c2[nH]c(C)c(C(=O)OCC)c2C)N=C1C , state the outcome it received in this test.
N

Given CCNc1ccc(-c2nc3ccccc3n3cccc23)cc1 , state the outcome it received in this test.
N

Given COc1cc(OC)cc(-c2ccc(-c3ccc(C(=N)N)o3)o2)c1 , state the outcome it received in this test.
Y

Given CC(C)=CCNc1ncnc2c1ncn2C1OC(CO)C(O)C1O (stereo not given) , state the outcome it received in this test.
Y

Given CN(C)CCCC1(c2ccc(F)cc2)OCc2cc(-c3ccc4cc[nH]c4c3)ccc21 (stereo not given) , state the outcome it received in this test.
N

Given Cc1ccc(/C=C/C(=O)c2cccc(OCCCOc3cccc(C(=O)/C=C/c4ccc(C)cc4)c3)c2)cc1 , state the outcome it received in this test.
N

Given C[C@H](CCCC(=O)NCC#CCN1CCN(C)CC1)[C@H]1CC[C@H]2[C@@H]3CC[C@@H]4CC(=O)CC[C@]4(C)[C@H]3CC[C@]12C , state the outcome it received in this test.
N

Given COc1ccc(-c2ccc(-c3ccc(C(=N)N)nc3)s2)cc1Cl , state the outcome it received in this test.
Y

Given COc1ccc(-c2n[nH]c(=O)c3nc(NC(=S)Nc4ccc(Oc5ccccc5)cc4)sc23)cc1 , state the outcome it received in this test.
N

Given COc1cc2c(c(OC)c1OC)C(=O)CC(c1cccc(NC(=O)c3ccc(C#N)cc3)c1)O2 (stereo not given) , state the outcome it received in this test.
N

Given Cn1cc(-c2csc(-c3cn(CCCN4CCOCC4)c4ccccc34)n2)c2cccnc21 , state the outcome it received in this test.
N

Given Cc1ccc(-c2nc(SCc3nc4cc(Cl)c(Cl)cc4[nH]3)[nH]c(=O)c2C#N)cc1 , state the outcome it received in this test.
N

Given C=C(c1ccc(OC)c(/C=C/C(=O)c2ccc3c(c2)OCO3)c1)c1cc(OC)c(OC)c(OC)c1 , state the outcome it received in this test.
Y

Given O=c1c2ccccc2c(=O)c2c1sc1c(=O)c3ccc(O)cc3c(=O)c12 , state the outcome it received in this test.
Y

Given O=C(/C=C/c1cccc(Cl)c1Cl)Nc1ncc(Cc2ccccc2Cl)s1 , state the outcome it received in this test.
N

Given Cc1c(CN)cc(-c2ccc(Cl)cc2)n1-c1ccccc1 , state the outcome it received in this test.
N

Given CC1=C(C(=O)Nc2nc(-c3ccc(Cl)cc3)cs2)[C@H](c2ccc(O)cc2)NC(=O)N1 , state the outcome it received in this test.
N

Given CCN(CC)c1ccc(/C=N/NC(=O)Cc2ccc(Nc3ccnc(C(F)(F)F)c3)cc2)c(O)c1 , state the outcome it received in this test.
N

Given Clc1ccc(-c2cc(-c3ccccc3)nc(NCCNc3ccnc4cc(Cl)ccc34)n2)cc1 , state the outcome it received in this test.
Y

Given CC1C(/C=N/NC(N)=S)C(C#N)(C#N)C1(C#N)C#N (stereo not given) , state the outcome it received in this test.
N

Given CC1(C)CC[C@]2(CO)CC[C@]3(C)[C@H](CC[C@@H]4[C@@]5(C)CCCNC(C)(C)[C@@H]5CC[C@]43C)[C@H]2[C@H]1O , state the outcome it received in this test.
N

* * *

Measured growth accompanies every entry in the list below.
system: SK-MEL-2 melanoma; assay: NCI-60 one-dose screen, 48 h (100 = growth as untreated, 0 = no growth, -100 = all killed); details: 10 µM unless noted
This is part of a sample that, as a whole, favours compounds with a hit. Of some 83,000 tested, about 20% had one in any assay.
Please give a number only; it is taken to be in %.

{"Sample Smiles": "Cc1ccc(N2C(=O)CCC2=O)cc1", "Parameter Measured": "growth", "Measurement Units": "%", "Value Reported": 84.8}
{"Sample Smiles": "O=C1Nc2ccccc2/C1=C/c1cccn1C(=O)c1ccc(Cl)s1", "Parameter Measured": "growth", "Measurement Units": "%", "Value Reported": 86.7}
{"Sample Smiles": "Cc1ccc2nc(-c3ccc(C(=O)NNC(=S)Nc4ccccc4)cc3)[nH]c2c1", "Parameter Measured": "growth", "Measurement Units": "%", "Value Reported": 112}
{"Sample Smiles": "COc1cccc(C(=O)NNc2nc(Cl)nc(Cl)n2)c1", "Parameter Measured": "growth", "Measurement Units": "%", "Value Reported": 96.3}
{"Sample Smiles": "C/C(Cc1ccc(Cl)cc1)=C(\\c1ccc(OCCCN(C)C)cc1)c1ccc(OC(=O)Cc2ccccc2)cc1", "Parameter Measured": "growth", "Measurement Units": "%", "Value Reported": 100}

Form field: reported growth of C=C(C)[C@@H]1CCC[C@]2(C(=O)O)CC[C@]3(C)[C@@H](CC[C@@H]4[C@@]5(C)C/C(=C/c6ccncc6)C(=O)C(C)(C)[C@@H]5CC[C@]43C)[C@@H]12
48.3

Form field: reported growth of N[C@H]1CCC[C@@H]1NCCCCN1C(=O)c2cccc3cc([N+](=O)[O-])cc(c23)C1=O
84.2

Form field: reported growth of Cc1ccc(C(=O)c2ccc(CC(=O)NN3C(=O)c4ccccc4C3=O)n2C)cc1
102

Form field: reported growth of CN(Cc1cc(Br)cc(Br)c1O)Cc1cc(Br)cc(Br)c1O
51

* * *

system: SF-539 CNS; test: NCI-60 one-dose screen, 48 h (100 = growth as untreated, 0 = no growth, -100 = all killed); conditions: 10 µM unless noted
About 83,000 compounds went through this panel and 20% of them were active in at least one assay; those are over-represented in the sample as a whole.
Parameter Measured: growth (%)
Please give a number only; it is taken to be in %.

{"Compound": "CN(Cc1cnc2nc(N)nc(N)c2n1)c1ccc(C(=O)NC(CCC(=O)O)C(=O)O)cc1Br (stereo not drawn)", "growth, %": 6.95}
{"Compound": "Cc1c(Cl)cccc1C(=O)Nc1nc2c(s1)CN(C(=O)c1ccc(C(F)(F)F)cc1)CC2", "growth, %": -24.5}
{"Compound": "Nn1c(=O)c(=O)[nH]c2c(cnn2-c2ccccc2)c1=O", "growth, %": 99.8}
{"Compound": "CCN1C(=O)N(CC)C2C1NC(=S)N2/N=C/c1ccc(OC)cc1 (stereo not drawn)", "growth, %": 55.2}
{"Compound": "Cn1c(=O)c2[nH]c(SCC(=O)Nc3ccc(C(=O)/C=C/c4ccccc4Cl)cc3)nc2n(C)c1=O", "growth, %": 101}

Form field: reported growth of O=C(/C=C/C12c3ccccc3C(c3ccccc31)C1C(=O)NC(=O)C12)c1ccc(Br)cc1 (stereo not drawn)
77.9

Form field: reported growth of CSc1nc(C)c([N+](=O)[O-])c(N)n1
104

Form field: reported growth of COc1ccc(C#Cc2ccc(=O)oc2-c2cc(OC)c(OC)c(OC)c2)cc1O
47.6

Form field: reported growth of COC1=C(C)C(=O)N2[C@@H]1[C@H](c1ccccc1)OC21C=CC(=O)C=C1
-69

Form field: reported growth of CN(C)S(=O)(=O)Oc1ccc(-c2sc3cc(OS(=O)(=O)N(C)C)ccc3c2C(=O)c2ccc(OCCN3CCCCC3)cc2)cc1
52.2

Form field: reported growth of O=S(=O)(Oc1ccc(Br)cc1)c1ccc(Cl)cc1
110

Form field: reported growth of CN1CCN(CCOc2ccc(-c3cnc4c(-c5ccc(F)cc5)cnn4c3)cc2)CC1
49.5

Form field: reported growth of C=C1C(=O)O[C@H]2[C@H]1CC/C(COC(=O)/C=C/C(=O)OC/C1=C/CC[C@@]3(C)O[C@H]3[C@H]3OC(=O)C(=C)[C@@H]3CC1)=C\CC[C@@]1(C)O[C@@H]21
82.2

Form field: reported growth of COc1cc(/C=C/C(=O)c2ccc(-n3cc(CN4CCN(c5cc6c(cc5F)c(=O)c(C(=O)O)cn6C5CC5)CC4)nn3)cc2)ccc1O
60.1

Form field: reported growth of CCN1C(=O)N(CC)C2C1NN=c1s/c(=C\c3cnc(C)n3C)c(=O)n12 (stereo not drawn)
-20.2

Form field: reported growth of Cc1nc2sc(C(=O)Nc3cccc(Br)c3C)c(N)c2cc1C(O)c1ccccc1 (stereo not drawn)
1.41

Form field: reported growth of CC1(C)CC[C@]2(CO)CC[C@]3(C)[C@H](CC[C@@H]4[C@@]5(C)CCCNC(C)(C)[C@@H]5CC[C@]43C)[C@H]2[C@H]1O
74.9

Form field: reported growth of O=C(NC1CC(F)C1)c1cc2cccnc2n1-c1ccc(Cl)c(Cl)c1 (stereo not drawn)
98
